Test system: T-47D breast
Test: NCI-60 one-dose screen, 48 h (100 = growth as untreated, 0 = no growth, -100 = all killed)
Settings: 10 µM unless noted
Method: Growth inhibition of the T-47D human tumor cell line is measured as a screen for anti-cancer activity. Cells are grown in 96 well plates and exposed to the test compound for 48 hours. Compounds are tested at a single concentration, which is 10^-5 M for most compounds. The reported endpoint is percent growth (GI% or GIPRCNT), where numbers from 0 - 100% represent growth inhibition, and numbers from -100% - 0 represent cell death. For example, a value of 40 represents 60% growth inhibition. […]
Compounds without any hit were thinned out: in the full panel of roughly 83,000, 20% have a hit.
quantity_measured: growth (%)

• COc1ccc(/C=C\c2cc(OC)c(OC)c(OC)c2)cc1OCC(=O)Nc1ccc2nc(C)sc2c1 = 6.4
• OCCN1CCN(c2nc(Nc3ccc(-c4nc5ccccc5[nH]4)cc3)c3cn[nH]c3n2)CC1 = -68.4
• O=c1oc2c(C(F)(F)F)cccc2cc1-c1csc(Nc2ccc(OCCF)cc2)n1 = 71.1
• CC(C)(C)CC(C)(C)c1ccc(OCCOCC[N+](C)(C)Cc2ccccc2)cc1 = -7.78
• O=C1/C(=C/c2ccccc2O)N=C2SCCCN12 = 84.5
• CCN(CC)CCCCNc1c2ccc(Cl)cc2nc2ccc(OC)cc12 = -16.9
• O=C1/C(=C/c2cn(-c3ccccc3)nc2-c2ccccc2)SC(=S)N1CCc1ccccc1 = 96.5
• O=C1Nc2ccc(Br)cc2C12Oc1ccccc1C1CC(c3ccc(F)cc3)=NN12 (stereo not given) = 85.9
• CC(C)(C)c1cc(C(C)(C)C)cc(S(=O)(=O)Nc2cc3ccccc3cc2C(=O)NCCN)c1 = 5.06
• COc1ccc(-c2n[nH]nc2-c2csc3ccccc23)cc1OC = 28.5

---

System: SF-295 CNS
Assay: NCI-60 one-dose screen, 48 h
Details: 10 µM unless noted
This is part of a sample that, as a whole, favours compounds with a hit. Of some 83,000 tested, about 20% had one in any assay. Calls of active or inactive are those of the source. How the source made its calls: active means growth percent below 10; inactive means the rest.
Outcome codes: active, inactive

- COc1ccccc1NS(=O)(=O)c1ccc2oc(SC(C)C)nc2c1: inactive
- COc1ccc(Nc2nc(SC)nc(-c3cccc([N+](=O)[O-])c3)c2C#N)cc1: inactive
- COc1cc2nnc3c4cccnc4[nH]c3c2cc1OC: inactive
- C=C(C)[C@@H]1CC[C@]2(C(N)=O)CC[C@]3(C)[C@H](CC[C@@H]4[C@@]5(C)C/C(=C/c6ccco6)C(=O)C(C)(C)[C@@H]5CC[C@]43C)[C@@H]12: inactive
- CC(C)c1c(C(=O)c2ccccc2)c(-c2ccccc2)c(-c2ccc(F)cc2)n1CC[C@@H](O)C[C@@H](O)CC(=O)O: inactive
- C=C(C)[C@@H]1CC[C@]2(C(=O)OC)CC[C@]3(C)[C@H](CC[C@@H]4[C@@]5(C)C/C(=C/c6cccc(I)c6)C(=O)C(C)(C)[C@@H]5CC[C@]43C)[C@@H]12: inactive
- O=C(/C=C/c1ccccc1)c1ccc(O)c(CN2CCN(c3cc4c(cc3F)c(=O)c(C(=O)O)cn4C3CC3)CC2)c1: active
- O=C1c2cc3c(cc2-c2c1c1ccc(F)cc1c(=O)n2CCCNCCO)OCO3: active

---

Examples of compounds with documented growth follow.
Test system: MOLT-4 leukemia
Test: NCI-60 one-dose screen, 48 h (100 = growth as untreated, 0 = no growth, -100 = all killed)
Conditions: 10 µM unless noted
This is part of a sample that, as a whole, favours compounds with a hit. Of some 83,000 tested, about 20% had one in any assay.
quantity_measured: growth (%)

• Fc1ccc2[nH]cc(SSc3c[nH]c4ccc(F)cc34)c2c1 = 14
• COc1cccc2c1C(=O)c1c(O)c3c(c(O)c1C2=O)C[C@](O)(C(=O)CO)C[C@H]3O[C@@H]1C[C@@H](NC(=O)CCCCCN(C)C2(c3ccc(F)cc3)CC3CCC2C3)[C@H](O)[C@@H](C)O1 (some centres undefined) = -27.7
• CC1=C/C(=C(\c2ccc(N(C)C)cc2)c2ccc([N+](C)(C)C)cc2)C=CC1=[N+](C)C = 106
• CCN1CCN(c2nc(NCCNc3ccnc4cc(Cl)ccc34)c3ccccc3n2)CC1 = 6.3
• NC(=NCCCC1(c2ccccc2)CCCC1)Nc1ccc(Cl)cc1 = -0.285
• COc1ccc(Nc2c3c4c(cccc4[nH]c2=O)C(=O)c2ccccc2-3)cc1 = 1.81
• COc1ccc(/C=C2\Oc3cc(OCCCCN4CCCC4)ccc3C2=O)cc1 = 42.7
• Cc1ccc(-c2onc3c(=O)[nH]nc(-c4ccccc4)c23)cc1 = 26
• O=[N+]([O-])c1cnc(N2CCN(CC3CC3)CC2)nc1N1CCN(CC2CC2)CC1 = 103

---

Test system: MOLT-4 leukemia
Test: NCI-60 one-dose screen, 48 h
Settings: 10 µM unless noted
The panel holds about 83,000 compounds, 20% with a hit somewhere; the sample as a whole holds those more often. Active and inactive are the calls of the source. Rule for the calls: active = growth percent below 10; inactive = the rest.
Outcome codes: active, inactive

• O=C(CCN1C(=O)/C(=C/c2ccc(Cl)cc2)SC1=S)NCCCN1CCOCC1 = inactive
• CN(C)S(=O)(=O)c1cccc(-c2nc3sc4c(c3c(=O)[nH]2)CCCC4)c1 = inactive
• Nc1ccc(-c2cc3c(NCc4ccccc4)ncnc3s2)cc1 = inactive
• CCC([N+](=O)[O-])S(=O)(=O)c1ccc(C)cc1 (centres undefined) = inactive
• C#Cc1cccc(NC(=O)c2ccccc2NC(=O)CCl)c1 = inactive
• CCn1c(Cc2ccccc2Nc2c(Cl)cccc2Cl)nnc1SCC(=O)NN1C(=O)/C(=C/c2cc(OC)c(O)c(OC)c2)SC1=S = inactive
• COC(=O)c1ccc2oc(NC(=O)c3ccc(Nc4ccc([N+](=O)[O-])cc4C)c([N+](=O)[O-])c3)nc2c1 = inactive
• Nc1n[nH]c2ccc([C@@H]3Nc4cc5c(cc4[C@H]4C6CCC(C6)[C@@H]34)C(=O)NC5)cc12 (some centres undefined) = inactive
• CC(C)(C)c1cc(C(C)(C)C)cc(S(=O)(=O)Nc2cc3ccccc3cc2C(=O)NCCN)c1 = inactive
• COc1ccc(-c2n[nH]nc2-c2csc3ccccc23)cc1OC = inactive
• CNc1ccc(-c2cc(=O)oc3ccc(Cl)cc23)cc1 = inactive
• N#Cc1c(-c2ccc(Cl)cc2)nc(N=Nc2c(O)[nH]c3ccc(Cl)cc23)nc1N1CCOCC1 = inactive
• C=C1c2nc3ccccc3n2C=C(c2ccc(Cl)cc2)N1Cc1ccc(OC)cc1 = inactive
• CCOC(=O)c1sc2nc(-c3cccc(OC)c3)nc(N3CCOCC3)c2c1C = inactive
• CN(C)c1ccc(N=Nc2ccc(Br)cn2)c(O)c1 = active
• COc1cc2c(cc1-c1c(C)noc1C)ncc1nc(C3CCCC3)n([C@H](C)COC(F)F)c12 = inactive
• O=C1c2cc3c(cc2-c2c1c1ccc(Cl)cc1c(=O)n2CCCN1CCOCC1)OCO3 = active
• OCc1ccc(N2CCc3cccc(F)c3C2)cc1Cl = inactive
• C=C(C)[C@@H]1CC[C@]2(C(=O)OC)CC[C@]3(C)[C@H](CC[C@@H]4[C@@]5(C)C/C(=C/c6ccc(OC)cc6)C(=O)C(C)(C)[C@@H]5CC[C@]43C)[C@@H]12 = inactive
• C=CC(=O)Nc1cccc(Nc2nc(SC)nc(-c3cccc([N+](=O)[O-])c3)c2C#N)c1 = inactive
• CSc1nc(NCc2ccccc2)c(C#N)c(-c2cccc([N+](=O)[O-])c2)n1 = inactive
• O=C1/C(=C/C(Cl)=C/c2ccccc2)SC(=S)N1CCc1ccc(O)cc1 = active
• CSc1nc(NCCO)c(C#N)c(-c2cccc([N+](=O)[O-])c2)n1 = inactive
• O=S(=O)(Nc1ccc(OC(F)F)cc1)c1ccc(-c2cnc(C3CC3)o2)cc1 = inactive
• NC(CSC(c1ccccc1)(c1ccccc1)c1ccc(Cl)cc1)C(=O)O (centres undefined) = active
• c1ccc(CCNc2ncnc3[nH]ncc23)cc1 = inactive
• COc1cccc(NC(=O)c2sc3nc(C)c(C(C)=O)cc3c2N)c1 = inactive
• Cc1cn2c(/C=C3/C(=O)Nc4c3ccc3ccccc43)c(C(F)(F)F)nc2s1 = inactive
• Cc1ccc(NC(=O)/C=C/c2ccccc2)c(C(N)=O)c1 = inactive
• CN(C)S(=O)(=O)c1ccc(S(=O)(=O)Nc2cccc(Cl)c2N2CCCCC2)cc1 = inactive
• C=CC(=O)Nc1cccc(-c2nc(SC)nc(NCc3ccccc3)c2C#N)c1 = inactive
• COc1ccc(/C=C/C(=O)c2ccc(O)c(CN3CCN(c4cc5c(cc4F)c(=O)c(C(=O)O)cn5C4CC4)CC3)c2)cc1 = inactive
• CCOC(=O)n1cc(-c2nonc2-c2cn(C)c3ncccc23)c2cc(F)ccc21 = inactive
• O=C(Cc1ccc(/C=C/C(=O)c2ncc[nH]2)cc1)Nc1ccc(F)cc1 = inactive
• CN1CCN(c2nc(NCCCCNc3ccnc4cc(Cl)ccc34)c3ccccc3n2)CC1 = inactive
• COc1cccc(Nc2nc(SC)nc(-c3cccc([N+](=O)[O-])c3)c2C#N)c1 = inactive
• NC(=NCCCOc1ccc(Cl)cc1)Nc1ccc(C(F)(F)F)cc1 = active
• COc1ccc(S(=O)(=O)N2CCN(C)CC2)cc1NC(=O)c1[nH]c(C)c2c1CCCCC2=O = inactive
• CCOc1cc2ncc(C#N)c(Nc3ccc(OCc4cccc(F)c4)c(Cl)c3)c2cc1NC(=O)CC1CCSS1 (centres undefined) = active
